Cited source for all entries: the supplement of paper PMC8285479

# Tested on: NCI-H1944
# assay name: normalised cell viability (NPI; 0 = phenylarsine oxide control, 1 = DMSO control) (fraction of DMSO control); higher = more viable cells (less compound toxicity)
# experimental setup: glucocorticoid arm: hydrocortisone 2.75 uM pre-treated 2 days and continued; compound 5 µM; 6 days
Where a name gives a salt, the structure may show the parent alone. Over roughly 1,900 compounds, “normalised cell viability (NPI; 0 = phenylarsine oxide control, 1 = DMSO control)” has its median near 1; the lowest 2% begin near 0.039. The full list was thinned out, with the lowest values kept by preference.
# 1 = normalised cell viability below 1 (exclusive); 0 = normalised cell viability at/above 1

Previously resolved entries follow.
C=C/C(C)=C/[C@@]1(C)SC(=O)C(C)=C1O [Thiolactomycin]; 1
O=C(O)/C(=C\c1c(C(=O)O)[nH]c2cc(Cl)cc(Cl)c12)c1ccccc1; 0
COc1cc(C(=O)NC2CCN(C)CC2)ccc1Nc1ncc2c(n1)N(C1CCCC1)CC(F)(F)C(=O)N2C; 1
Cc1cc(N2CCOCC2)cc2[nH]c(-c3c(NCC(O)c4cccc(Cl)c4)cc[nH]c3=O)nc12 (stereo not drawn); 1
CC[C@@H]1C(=O)N(C)c2cnc(Nc3ccc(C(=O)NC4CCN(C)CC4)cc3OC)nc2N1C1CCCC1; 1

-- ask Just wondering, is normalised cell viability of COc1ccc(-c2nc(N3CCOCC3)c3sc(CN(C)c4ncc(C(=O)NO)cn4)cc3n2)cn1 below 1?
-- reply 1

-- ask I wonder whether NCCC[C@](N)(C(=O)O)C(F)F (racemic) [DL-alpha-Difluoromethylornithine hydrochloride] has normalised cell viability below 1. Can you tell?
-- reply 1

-- ask Is 1 strictly greater than the molecule's reported normalised cell viability? molecule: NC1(Cc2ccc(Cl)cc2)CCN(c2ncnc3[nH]ccc23)CC1
-- reply 1

-- ask Is normalised cell viability strictly under 1 for the entry Cc1ccc([N+](=O)[O-])cc1S(=O)(=O)N(C)/N=C/c1cnc2ccc(Br)cn12 ?
-- reply 1

-- ask Consider the molecule Cc1cc([C@@H](C)Nc2ccccc2C(=O)O)c2nc(N3CCOCC3)cc(=O)n2c1 . Is its normalised cell viability strictly less than 1?
-- reply 1

-- ask Given CC[C@@H]1C(=O)N(C)c2cnc(Nc3ccc(C(=O)N[C@H]4CC[C@H](N5CCN(CC6CC6)CC5)CC4)cc3OC)nc2N1C(C)C [BI6727 (Volasertib)] , is recorded normalised cell viability strictly lower than 1?
-- reply 1

-- ask Find out if reported normalised cell viability for CS(=O)(=O)N1CCN(Cc2cc3nc(-c4cccc5[nH]ncc45)nc(N4CCOCC4)c3s2)CC1 is less than 1
-- reply 0

---

# Test system: NCI-H1944;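 note: CTB read-out in 384-well plates, triplicate wells, NPI normalised per plate against 1 µM phenylarsine oxide (0) and 0.1% DMSO (1) controls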
# assay name: normalised cell viability (NPI; 0 = phenylarsine oxide control, 1 = DMSO control) (fraction of DMSO control); NCI-H1944 is a non-small cell lung cancer line; higher = more viable cells (less compound toxicity)
# experimental setup: glucocorticoid arm: hydrocortisone 2.75 uM pre-treated 2 days and continued; compound 1 µM; 6 days
Where a name gives a salt, the structure may show the parent alone. The full ranking holds about 1,900 compounds; the median of “normalised cell viability (NPI; 0 = phenylarsine oxide control, 1 = DMSO control)” is about 1, and the lowest 2% start at about 0.039. The full list was thinned out, with the lowest values kept by preference.
observed property: normalised cell viability
Answers are plain numbers.

Reference set, count: 10
CC(=O)[C@]1(O)Cc2c(O)c3c(c(O)c2[C@@H](O[C@H]2C[C@H](N)[C@H](O)[C@H](C)O2)C1)C(=O)c1ccccc1C3=O [Idarubicin hydrochloride; Idarubicin; 4-DMD HCl]; 0.0494
CC(C)C[C@H](NP(=O)(O)O[C@H]1O[C@H](C)[C@@H](O)[C@H](O)[C@@H]1O)C(=O)N[C@@H](Cc1c[nH]c2ccccc12)C(=O)O [Phosphoramidon disodium]; 1.01
CNC(=N)NCCC[C@H](N)C(=O)O [NG-Monomethyl-L-arginine acetate]; 1
O=C(NCCO)c1ccc2c(c1)nc(Nc1cccc(Cl)c1)c1ccncc12; 1.03
CC(C)(C(=O)O)c1ccc(C(O)CCCN2CCC(C(O)(c3ccccc3)c3ccccc3)CC2)cc1 (centres undefined) [Fexofenadine HCl]; 1.04
COc1cccc2c1C(=O)c1c(O)c3c(c(O)c1C2=O)C[C@@](O)(C(C)=O)C[C@@H]3O[C@H]1C[C@H](N)[C@H](O)[C@H](C)O1 [Daunorubicin hydrochloride; Daunorubicin HCl]; 0.587
Cc1[nH]c(=O)c(C#N)cc1-c1ccncc1; 0.998
CCCCC1(C2CCCC2)Cc2cc(OCC(=O)O)c(Cl)c(Cl)c2C1=O (stereo in doubt) [R(+)-Butylindazone]; 0.988
CC1CCN=C(N)S1 (racemic) [(±)-AMT hydrochloride]; 0.992
Cc1nc(Nc2n[nH]c3c2CN(C(=O)N[C@H](CN(C)C)c2ccccc2)C3(C)C)c2sccc2n1; 1.05

For every item in the list below, what is its measured normalised cell viability?
1. O=C1NCCc2[nH]c(-c3ccncc3)cc21
2. COc1cc2c(cc1OC)[C@@H](c1ccccc1)CN(C)CC2
3. CC(=O)[C@]1(O)Cc2c(O)c3c(c(O)c2[C@@H](O[C@H]2C[C@H](N)[C@H](O)[C@H](C)O2)C1)C(=O)c1ccccc1C3=O [Idarubicin hydrochloride]
4. N=C1Sc2ccccc2C2=NCCCN12
5. CCC(=O)NCC[C@@H]1CCc2ccc3c(c21)CCO3
6. C/C=C1\NC(=O)[C@H]2CSSCC/C=C/[C@H](CC(=O)N[C@H](C(C)C)C(=O)N2)OC(=O)[C@H](C(C)C)NC1=O [Romidepsin (FK228, Depsipeptide)]

-- reply
0.993
1.02
0.00532
1.02
1.01
0.00593

For every listed record, write down its normalised cell viability.
1. N[C@@H](CCC(=O)N[C@@H](CSN=O)C(=O)NCC(=O)O)C(=O)O
2. Cc1ccccc1CNc1ncnc2c1ncn2[C@@H]1O[C@H](CO)[C@@H](O)[C@H]1O
3. Nc1ccc(-c2ccc3ncc4ccc(=O)n(-c5cccc(C(F)(F)F)c5)c4c3c2)cn1
4. N#C/C(=C\c1ccc(-c2cc(Cl)ccc2Cl)o1)C(=O)Nc1cccc2ncccc12
5. COc1cccc2c1C(=O)c1c(O)c3c(c(O)c1C2=O)C[C@@](O)(C(=O)CO)C[C@@H]3O[C@H]1C[C@H](N)[C@H](O)[C@H](C)O1 [Doxorubicin hydrochloride; 4'-Epiadriamycin; Doxorubicin HCl]
6. OC(CCN1CCCCC1)(c1ccccc1)C1CCCCC1 (racemic) [DL-Trihexyphenidyl hydrochloride]
7. CN1CCC[C@@H]1c1cccnc1.Cc1ccc(C(=O)O[C@H](C(=O)O)[C@@H](OC(=O)c2ccc(C)cc2)C(=O)O)cc1 [(+)-Nicotine (+)-di-p-toluoyl tartrate]
8. NC1(C(=O)O)CCCCC1 [1-Amino-1-cyclohexanecarboxylic acid hydrochloride]

-- reply
[1.02, 1.02, 0.267, 0.984, 0.754, 1.03, 1.03, 0.993]

For every item in the list below, what is its measured normalised cell viability?
1. CC(NC(=O)C(O)c1cc(F)cc(F)c1)C(=O)NC1C(=O)N(C)c2ccccc2-c2ccccc21 (centres undefined)
2. C/C=C1\NC(=O)[C@H]2CSSCC/C=C/[C@H](CC(=O)N[C@H](C(C)C)C(=O)N2)OC(=O)[C@H](C(C)C)NC1=O [Depsipeptide]
3. CCCCC(=O)OCC(=O)[C@]1(O)Cc2c(O)c3c(c(O)c2[C@@H](O[C@H]2C[C@H](NC(=O)C(F)(F)F)[C@H](O)[C@H](C)O2)C1)C(=O)c1c(OC)cccc1C3=O
4. COc1cc2nccc(Oc3ccc(NC(=O)Nc4ccc(F)cc4F)c(F)c3)c2cc1OC

-- reply
0.977
0.00143
0.973
1.04

-- ask # normalised cell viability lookup, item S=C(S)N1CCCC1 [Ammonium pyrrolidinedithiocarbamate]
-- reply 1.01
